Measured values drawn from paper PMC8041284 for this set.

inhibition at 10 µM reference
Biological target: BTK (Homo sapiens, UniProt Q06187)
Sequence (Q06187 402-655 limits assumed): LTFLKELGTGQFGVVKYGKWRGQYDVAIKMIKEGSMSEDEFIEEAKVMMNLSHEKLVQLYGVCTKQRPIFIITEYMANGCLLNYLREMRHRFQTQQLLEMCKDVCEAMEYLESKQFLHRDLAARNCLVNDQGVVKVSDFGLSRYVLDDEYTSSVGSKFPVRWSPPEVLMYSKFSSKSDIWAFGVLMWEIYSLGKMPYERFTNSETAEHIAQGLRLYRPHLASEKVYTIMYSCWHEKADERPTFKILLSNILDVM
Assay: biochemical
Settings: read-out: BTK inhibition (%), 0.75 uM BTK, […] probe 3l, 15 min preincubation
The response must be a number in % with no trailing unit.

Past entries and their recorded results:
molecule	targetDesc	inhibition at 10 µM, %
N#C[C@@H]1C[C@@H]2C[C@@H]2N1C(=O)[C@@H](N)C12CC3CC(CC(O)(C3)C1)C2	BTK (Homo sapiens, UniProt Q06187)	-22.6
Cc1ccc(Sc2cncc3sc(C(N)=O)cc23)cc1	BTK (Homo sapiens, UniProt Q06187)	-3.9

Consider the molecule shown here: Cc1ccn[nH]1 What is its recorded inhibition at 10 µM?
4.6

Consider the molecule shown here: CC(=O)OCC(=O)[C@@]1(O)CC[C@H]2[C@@H]3CCC4=CC(=O)C=C[C@]4(C)[C@H]3[C@@H](O)C[C@@]21C What is its recorded inhibition at 10 µM?
2.1

Consider the molecule shown here: CC1(C)Cc2c(sc(NC(=O)c3ccn[nH]3)c2C(N)=O)C(C)(C)O1 What is its recorded inhibition at 10 µM?
1.5
